Consider the following molecules; for each one, report its IC50.
Target: Monoglyceride lipase (Homo sapiens, UniProt Q99685)
Assay: Inhibition of human recombinant MGL
Numbers only, in µM.

- smiles-input: "CCCCCCCCCc1ccc(B(O)O)cc1"
  study-system: "Monoglyceride lipase (Homo sapiens, UniProt Q99685)"
  IC50 / µM: 7.9
- smiles-input: "OB(O)c1cc2ccccc2o1"
  study-system: "Monoglyceride lipase (Homo sapiens, UniProt Q99685)"
  IC50 / µM: 100
- smiles-input: "OB(O)c1cccc(C(F)(F)F)c1"
  study-system: "Monoglyceride lipase (Homo sapiens, UniProt Q99685)"
  IC50 / µM: 38

# IC50 of `OB(O)c1cc2ccccc2s1` = 32

====

Biological target: Monoglyceride lipase (Homo sapiens)
Test: Inhibition of human recombinant MGL at 100 uM
Consider the following compounds; for each one, report its inhibition.
One number for each entry, in %.

These solved cases illustrate the format of a correct answer.
- smiles-input: "OB(O)c1ccc(F)nc1"
  inhibition [%]: 2
- smiles-input: "N#Cc1cccc(B(O)O)c1"
  inhibition [%]: 21
- smiles-input: "N#Cc1ccc(B(O)O)cc1"
  inhibition [%]: 36
- smiles-input: "CCOC(=O)c1cccc(B(O)O)c1"
  inhibition [%]: 34
- smiles-input: "OB(O)c1ccccc1-c1ccccc1"
  inhibition [%]: 2

Give measured inhibition for every item shown.
1. COc1ccc(B(O)O)cc1
2. OB(O)c1ccc(F)cc1
3. OB(O)c1ccccc1C(F)(F)F

Result:
1: 11; 2: 3; 3: 20

====

Hi! I'm sharing some log10 IC50 results obtained with Fatty-acid amide hydrolase 1 (Rattus norvegicus, UniProt P97612).
Sequence (P97612 whole entry): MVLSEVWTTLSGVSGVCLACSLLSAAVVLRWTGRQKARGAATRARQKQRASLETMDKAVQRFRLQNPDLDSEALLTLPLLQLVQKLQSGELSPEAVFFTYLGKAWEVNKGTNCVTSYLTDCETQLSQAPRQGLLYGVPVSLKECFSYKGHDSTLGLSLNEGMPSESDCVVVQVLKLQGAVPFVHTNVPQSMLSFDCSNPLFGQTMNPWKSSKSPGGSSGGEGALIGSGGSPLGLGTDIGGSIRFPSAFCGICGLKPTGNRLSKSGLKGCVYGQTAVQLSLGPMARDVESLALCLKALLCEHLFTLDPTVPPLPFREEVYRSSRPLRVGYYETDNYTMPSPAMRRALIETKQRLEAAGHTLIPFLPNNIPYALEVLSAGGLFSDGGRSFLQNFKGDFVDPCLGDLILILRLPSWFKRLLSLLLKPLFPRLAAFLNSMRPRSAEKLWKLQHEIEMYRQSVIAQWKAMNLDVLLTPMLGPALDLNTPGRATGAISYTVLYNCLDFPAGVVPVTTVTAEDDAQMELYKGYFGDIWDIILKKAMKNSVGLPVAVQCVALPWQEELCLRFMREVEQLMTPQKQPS
// do not treat as linear: log10 of IC50, unit nM

These solved cases illustrate the format of a correct answer.
- smiles-input: "OB(O)c1ccccc1"
  study-system: "Fatty-acid amide hydrolase 1 (Rattus norvegicus, UniProt P97612)"
  log10 IC50: 3.41
- smiles-input: "OB(O)c1ccc(-c2ccccc2)cc1"
  study-system: "Fatty-acid amide hydrolase 1 (Rattus norvegicus, UniProt P97612)"
  log10 IC50: 1.32
- smiles-input: "OB(O)c1cccc(-c2ccccc2)c1"
  study-system: "Fatty-acid amide hydrolase 1 (Rattus norvegicus, UniProt P97612)"
  log10 IC50: 2.11
- smiles-input: "N#Cc1ccc(B(O)O)cc1"
  study-system: "Fatty-acid amide hydrolase 1 (Rattus norvegicus, UniProt P97612)"
  log10 IC50: 2.46
- smiles-input: "OB(O)c1cc2ccccc2o1"
  study-system: "Fatty-acid amide hydrolase 1 (Rattus norvegicus, UniProt P97612)"
  log10 IC50: 2.52

Give measured log10 IC50 for every item shown.
1. OB(O)c1ccc(F)nc1
2. OB(O)c1ccccc1-c1ccccc1

Result:
1. 4.00
2. 5.04

Give measured log10 IC50 for every item shown.
1. COc1ccc(B(O)O)cc1
2. OB(O)c1cccc(C(F)(F)F)c1
3. CCCCCCCCCc1ccc(B(O)O)cc1

Result:
[3.30, 1.90, 0.96]

====

Consider the following compounds; for each one, report its inhibition.
Biological target: Monoglyceride lipase (Homo sapiens) (UniProt Q99685)
Sequence (whole entry): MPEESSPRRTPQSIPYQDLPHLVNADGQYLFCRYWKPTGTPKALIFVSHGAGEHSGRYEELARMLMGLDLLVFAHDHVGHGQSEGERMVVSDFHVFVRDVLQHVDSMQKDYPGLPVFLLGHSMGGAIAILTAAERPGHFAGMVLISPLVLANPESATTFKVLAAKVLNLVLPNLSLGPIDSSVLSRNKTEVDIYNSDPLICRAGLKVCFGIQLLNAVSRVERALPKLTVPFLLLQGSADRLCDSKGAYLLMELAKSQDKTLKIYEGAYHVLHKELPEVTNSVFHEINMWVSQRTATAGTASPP
Assay: Inhibition of human recombinant MGL at 100 uM
Answers are plain numbers, in %.

- smiles-input: "OB(O)c1ccccc1F"
  experimental-endpoint: "inhibition"
  observed: 13

Give measured inhibition for every item shown.
1. O=[N+]([O-])c1ccc(B(O)O)cc1
2. COc1cccc(B(O)O)c1
3. COc1ccccc1B(O)O

Result:
1: 43; 2: 7; 3: 11
